// AC50 lookup, one value per entry
target_desc: Full length WRN protein (aa 2-1432) (Homo sapiens (Human), UniProt Q14191)
Sequence (Q14191 2-1432): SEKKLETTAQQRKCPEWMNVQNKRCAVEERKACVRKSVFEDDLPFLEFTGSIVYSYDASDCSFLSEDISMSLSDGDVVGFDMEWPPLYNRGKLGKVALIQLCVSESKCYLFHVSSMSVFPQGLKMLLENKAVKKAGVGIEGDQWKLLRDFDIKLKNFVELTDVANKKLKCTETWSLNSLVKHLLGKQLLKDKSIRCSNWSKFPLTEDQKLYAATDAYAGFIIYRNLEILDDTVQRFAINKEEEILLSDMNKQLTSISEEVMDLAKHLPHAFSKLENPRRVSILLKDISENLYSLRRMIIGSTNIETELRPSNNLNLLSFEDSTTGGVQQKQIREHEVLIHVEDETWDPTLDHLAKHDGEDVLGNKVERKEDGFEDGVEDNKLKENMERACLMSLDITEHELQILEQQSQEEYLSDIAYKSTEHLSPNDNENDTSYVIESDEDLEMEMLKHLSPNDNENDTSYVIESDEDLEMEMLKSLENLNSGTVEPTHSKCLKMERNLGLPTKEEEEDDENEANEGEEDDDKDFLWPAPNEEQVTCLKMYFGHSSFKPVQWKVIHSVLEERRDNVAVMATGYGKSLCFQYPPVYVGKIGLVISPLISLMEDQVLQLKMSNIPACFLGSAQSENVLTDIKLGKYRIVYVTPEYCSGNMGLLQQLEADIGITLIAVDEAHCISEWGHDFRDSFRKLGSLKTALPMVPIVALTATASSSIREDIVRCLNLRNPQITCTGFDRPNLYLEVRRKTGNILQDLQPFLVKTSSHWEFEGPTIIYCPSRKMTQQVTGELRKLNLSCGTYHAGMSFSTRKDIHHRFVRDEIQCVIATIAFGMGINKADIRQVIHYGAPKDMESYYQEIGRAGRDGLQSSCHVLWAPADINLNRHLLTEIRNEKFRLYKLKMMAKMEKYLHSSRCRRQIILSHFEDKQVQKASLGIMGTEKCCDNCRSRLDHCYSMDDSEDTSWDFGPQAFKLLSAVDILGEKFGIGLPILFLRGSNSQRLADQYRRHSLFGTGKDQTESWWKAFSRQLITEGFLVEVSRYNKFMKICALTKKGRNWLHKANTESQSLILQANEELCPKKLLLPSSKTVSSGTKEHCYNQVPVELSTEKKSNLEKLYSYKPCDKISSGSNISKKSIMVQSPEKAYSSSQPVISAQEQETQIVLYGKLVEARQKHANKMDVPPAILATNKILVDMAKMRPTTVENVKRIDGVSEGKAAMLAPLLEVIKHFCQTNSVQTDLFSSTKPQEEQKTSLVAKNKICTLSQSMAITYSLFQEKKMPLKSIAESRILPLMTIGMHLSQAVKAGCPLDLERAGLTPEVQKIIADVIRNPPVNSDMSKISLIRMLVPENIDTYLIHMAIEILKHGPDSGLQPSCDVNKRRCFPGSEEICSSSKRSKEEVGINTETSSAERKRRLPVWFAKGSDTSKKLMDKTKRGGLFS
assay_name: WRN ATPase ADP-Glo biochemical assay, Assay Format B (100 μM ATP)
cond: 0.25 nM WRN, 100 nM C6.18 ssDNA, 60 min preincubation, read-out: ATPase ADPGlo AC50 (uM)- Assay Format B

C=CC(=O)N1CCc2nn(-c3ccc(C4CC4)cc3O)c3c2C(C1)N(C(=O)c1cnc(SC)c(F)c1N)CC3 (centres unmarked) [Compound 223] :: 0.0015 to 0.005 µM
C=CC(=O)N1CCc2nn(-c3ccc(C4CCCC4)cc3O)c3c2C(C1)N(C(=O)c1cnc(C(F)(F)F)cc1N)CC3 (centres unmarked) [Compound 217] :: 0.0015 to 0.005 µM
C=CC(=O)N1CCc2nn(-c3ccc(C4CCC4)cc3O)c3c2C(C1)N(C(=O)c1ccc(OC(F)(F)F)nc1)CC3 (centres unmarked) [Compound 93] :: 0.005 to 0.015 µM
C=CC(=O)N1CCc2nn(-c3ccc(C4CCC4)cc3)c3c2C(C1)N(C(=O)c1cnc(C(F)(F)F)c(O)c1)CC3 (centres unmarked) [Compound 26] :: 0.005 to 0.015 µM
C=CC(=O)N1CCc2nn(-c3ccc(C4CC4)cc3)c3c2C(C1)N(C(=O)c1cnc(OC(F)F)cc1N)CC3 (centres unmarked) [Compound 177] :: 0.005 to 0.015 µM
C=CC(=O)N1CCc2nn(-c3ccc(C4CC4)cc3O)c3c2C(C1)N(C(=O)c1ccc(Br)c2[nH]c(C(F)F)nc12)CC3 (centres unmarked) [Compound 143] :: 0.005 to 0.015 µM

Form field: reported AC50 of C=CC(=O)N1CC(C)c2nn(-c3ccc(C(C)C)cc3)c3c2C(C1)N(C(=O)c1ccc(Br)c2[nH]cnc12)CC3 (centres unmarked) [Compound 33]
0.005 to 0.015 µM

Form field: reported AC50 of C=CC(=O)N1CCc2nn(-c3ccc(C4CC4)cc3O)c3c2C(C1)N(C(=O)c1cc(C#N)c(C(F)(F)F)cc1N)CC3 (centres unmarked) [Compound 207]
0.005 to 0.015 µM

Form field: reported AC50 of C=CC(=O)N1CCc2nn(-c3ccc(C4CC4)c(F)c3O)c3c2C(C1)N(C(=O)c1cnc(Br)c(F)c1N)CC3 (centres unmarked) [Compound 229]
0.015 to 0.055 µM

Form field: reported AC50 of C=CC(=O)N1CCc2nn(-c3ccc(C4CCC4)cc3O)c3c2C(C1)N(C(=O)c1ccc(C(F)(F)F)c2ncncc12)CC3 (centres unmarked) [Compound 242]
0.015 to 0.055 µM

---

target_desc: Full length WRN protein (aa 2-1432) (Homo sapiens (Human))
assay_name: WRN ATPase ADP-Glo biochemical assay, Assay Format B (100 μM ATP)
cond: 0.25 nM WRN, 100 nM C6.18 ssDNA, 60 min preincubation, read-out: ATPase ADPGlo AC50 (uM)- Assay Format B
metric: AC50

C=CC(=O)N1CC(F)Oc2nn(-c3ccc(C(C)C)cc3)c3c2C(C1)N(C(=O)c1ccc(Br)c2[nH]cnc12)CC3 (stereo not shown) [Compound 54] :: 0.005 to 0.015 µM
C=CC(=O)N1CCc2nn(-c3ccc(C4CC4)cc3)c3c2C(C1)N(C(=O)c1cnc(Cl)cc1N)CC3 (stereo not shown) [Compound 162] :: 0.005 to 0.015 µM
C=CC(=O)N1CCc2nn(-c3ccc(C4CCC4)cc3O)c3c2C(C1)N(C(=O)c1cc(F)c(C(F)(F)F)nc1N)CC3 (stereo not shown) [Compound 165] :: 0.015 to 0.055 µM
C=CC(=O)N1CCc2nn(-c3ccc(C(C)C)c(F)c3O)c3c2C(C1)N(C(=O)c1cnc(C(F)(F)F)c(O)c1)CC3 (stereo not shown) [Compound 64] :: 0.015 to 0.055 µM

Form field: reported AC50 of C=CC(=O)N1CCc2nn(-c3ccc(C4CC4)cc3)c3c2C(C1)N(C(=O)c1cnc(C(F)(F)F)cc1NC)CC3 (stereo not shown) [Compound 179]
0.015 to 0.055 µM

Form field: reported AC50 of C=CC(=O)N1CCc2nn(-c3ccc(C4CCC4)cc3)c3c2C(C1)N(C(=O)c1ccc2c(Cl)ncn2c1)CC3 (stereo not shown) [Compound 236]
0.005 to 0.015 µM

Form field: reported AC50 of C=CC(=O)N1CCc2nn(-c3ccc(C4CC4)cc3)c3c2C(C1)N(C(=O)c1cnc(Cl)c(F)c1N)CC3 (stereo not shown) [Compound 181]
0.0015 to 0.005 µM

---

target_desc: Full length WRN protein (aa 2-1432) (Homo sapiens (Human), UniProt Q14191)
assay_name: WRN ATPase ADP-Glo biochemical assay, Assay Format B (100 μM ATP)
cond: 0.25 nM WRN, 100 nM C6.18 ssDNA, 60 min preincubation, read-out: ATPase ADPGlo AC50 (uM)- Assay Format B
metric: AC50

C=CC(=O)N1CCc2nn(-c3ccc(C4CCC4)cc3O)c3c2C(C1)N(C(=O)c1ccc(C(F)F)nc1N)CC3 (stereo not shown) [Compound 146] :: 0.005 to 0.015 µM
C=CC(=O)N1CCc2nn(-c3ccc(C4CCC4)c(F)c3)c3c2C(C1)N(C(=O)c1cnc(C(F)(F)F)c(O)c1)CC3 (stereo not shown) [Compound 66] :: 0.005 to 0.015 µM
C=CC(=O)N1CCc2nn(-c3ccc(C4CC4)cc3O)c3c2C(C1)N(C(=O)c1ccc(C(F)(F)F)nc1N)CC3 (stereo not shown) [Compound 172] :: 0.005 to 0.015 µM
C=CC(=O)N1CCc2nn(-c3ccc(C4CC4)c(F)c3O)c3c2C(C1)N(C(=O)c1cnc(C(F)(F)F)c(O)c1)CC3 (stereo not shown) [Compound 100] :: 0.015 to 0.055 µM
C=CC(=O)N1CCc2nn(-c3ccc(C4CCC4)cc3O)c3c2C(C1)N(C(=O)c1cnc(C(F)(F)F)c(F)c1N)CC3 (stereo not shown) [Compound 134] :: 0.0015 to 0.005 µM
C=C(F)C(=O)N1CCc2nn(-c3ccc(C(C)C)cc3)c3c2C(C1)N(C(=O)c1ccc(Br)c2[nH]cnc12)CC3 (stereo not shown) [Compound 17] :: > 0.055 µM

Now for another entry.
Form field: reported AC50 of C=CC(=O)N1CCc2nn(-c3ccc(C4CC4)cc3)c3c2C(C1)N(C(=O)c1cnc(Br)cc1N)CC3 (stereo not shown) [Compound 166]
0.005 to 0.015 µM

---

target_desc: Full length WRN protein (aa 2-1432) (Homo sapiens (Human))
assay_name: WRN ATPase ADP-Glo biochemical assay, Assay Format B (100 μM ATP)
cond: 0.25 nM WRN, 100 nM C6.18 ssDNA, 60 min preincubation, read-out: ATPase ADPGlo AC50 (uM)- Assay Format B
// AC50 lookup, one value per entry

C=CC(=O)N1CCc2nn(-c3ccc(C(C)C)cc3O)c3c2C(C1)N(C(=O)c1cnc(Br)c2[nH]cnc12)CC3 (centres unmarked) [Compound 22] :: 0.015 to 0.055 µM

Form field: reported AC50 of C=CC(=O)N1CCc2nn(-c3ccc(C(C)C)cc3)c3c2C(C1)N(C(=O)c1cnc(C(F)(F)F)c(OCC(N)=O)c1)CC3 (centres unmarked) [Compound 59]
0.015 to 0.055 µM

Form field: reported AC50 of C=CC(=O)N1CCc2nn(-c3ccc(C4CCC4)cc3O)c3c2C(C1)N(C(=O)c1ccc2c(Br)n[nH]c2c1)CC3 (centres unmarked) [Compound 24]
0.005 to 0.015 µM

Form field: reported AC50 of C=CC(=O)N1CC(C)Oc2nn(-c3ccc(C(C)C)cc3)c3c2C(C1)N(C(=O)c1ccc(Br)c2[nH]cnc12)CC3 (centres unmarked) [Compound 52]
> 0.055 µM

Form field: reported AC50 of C=CC(=O)N1CCc2nn(-c3ccc(C4CCC4)cc3)c3c2C(C1)N(C(=O)c1ccc(Br)c2[nH]nc(N)c12)CC3 (centres unmarked) [Compound 158]
0.0015 to 0.005 µM

---

target_desc: Full length WRN protein (aa 2-1432) (Homo sapiens (Human), UniProt Q14191)
assay_name: WRN ATPase ADP-Glo biochemical assay, Assay Format B (100 μM ATP)
cond: 0.25 nM WRN, 100 nM C6.18 ssDNA, 60 min preincubation, read-out: ATPase ADPGlo AC50 (uM)- Assay Format B
metric: AC50

C=CC(=O)N1CCc2nn(-c3ccc(C4CCC4)cc3Cl)c3c2C(C1)N(C(=O)c1cnc(C(F)(F)F)cc1N)CC3 (stereo not shown) :: 0.005 to 0.015 µM

Form field: reported AC50 of C=CC(=O)N1CCc2nn(-c3ccc(C(C)C)cc3)c3c2C(C1)N(C(=O)c1ccc(Br)c(-c2cc[nH]n2)c1)CC3 (stereo not shown)
> 0.055 µM

Form field: reported AC50 of C=CC(=O)N1CCc2nn(-c3ccc(C4CC4)cc3O)c3c2C(C1)N(C(=O)c1cnc(C(F)(F)F)c(OC)c1N)CC3 (stereo not shown)
0.0015 to 0.005 µM

Form field: reported AC50 of C=CC(=O)N1CCc2nn(-c3ccc(C4CCC4)cc3O)c3c2C(C1)N(C(=O)c1ccc(OC(F)F)nc1)CC3 (stereo not shown)
0.005 to 0.015 µM
